test: small-molecule binders of probe aLefty1, primary screen, biochemical, small-molecule microarray, 635/667 nm fluorescence (AID 1153); settings: higher = more signal;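 further: score merges spot fluorescence with signal-to-noise ratio from the scanned slide images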
Measured composite z-score, listed per entry for reference.
// no unit, no text: just the number

| compound | composite z-score |
| --- | --- |
| COCCOC(=O)N1C(=O)[C@@]2(c3cc(C#Cc4ccc(OC)cc4)ccc31)[C@H](C(=O)N1CCN(c3ncccn3)CC1)[C@H]1C(=O)O[C@H](c3ccccc3)[C@H](c3ccccc3)N1[C@@H]2c1ccc(OCCO)cc1 | 0.327 |
| COCCOC(=O)N1C(=O)[C@@]2(c3cc(C#CC4(O)CCCCCC4)ccc31)[C@H](c1ccc(OCCO)cc1)N1[C@H](c3ccccc3)[C@H](c3ccccc3)OC(=O)[C@H]1[C@@H]2C(=O)NC[C@H](O)c1ccccc1 | 0.43 |
| COC(=O)[C@H](C)NC(=O)CCC1CC(OC(=O)NCCc2ccc(F)cc2)CC2(CCCC(COC(=O)NCC(c3ccccc3)c3ccccc3)O2)O1 (stereo partly drawn) | -0.194 |
| COC(=O)[C@@H]1CCCN1C(=O)[C@@H](C)CO | -0.147 |
| Cc1cc(C)c(-c2cc([C@H](C)ON=C3[C@H]4CCn5c(=O)n(-c6ccccc6)c(=O)n5[C@H]4[C@H](O)[C@@H]4O[C@H]34)on2)c(C)c1 | 0.218 |

Give the value of composite z-score reported for the following: COC(=O)[C@@]1(Cc2ccc(OC)cc2)[C@H]2c3cc(C(=O)N4CCCC4)n(Cc4cc(F)c(F)c(F)c4)c3C[C@H]2CN1C(=O)c1ccccc1
2.39

Check the records and state composite z-score for CCOC(=O)[C@H](CC(C)C)NC(=O)CCC1CC(OC(=O)NCc2cccc3ccccc23)CC2(CCCC(COC(=O)NCCc3ccccc3OC)O2)O1 (stereo partly drawn)
-0.147

Return value of composite z-score for input COCCOC(=O)N1C(=O)[C@@]2(c3cc(C#CCNC(N)=O)ccc31)[C@H](c1ccc(O)cc1)N1[C@H](c3ccccc3)[C@H](c3ccccc3)OC(=O)[C@H]1[C@@H]2C(=O)N1CCCCCCC1 , no commentary.
-0.0779

---

test system: Human papillomavirus type 1a protein E7 (residues 44-93); assay: HPV1a E7 fragment binders on microarrays, primary screen, biochemical, small-molecule microarray, residues 44-93, 635 nm fluorescence (AID 1108); conditions: small-molecule microarray binding, fluorescence 635 nm; higher = more signal;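 further: E7 fragment applied at 1 µg/mL in TBST for 1 h at 4 C; score combines spot fluorescence with its signal to noise ratio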
We use 0.2 as the dividing line for composite z-score: on or above the line is true (1), below is false (0).

Illustrative cases are given below, each with its answer.
| molecule | class assignment |
| --- | --- |
| C#CCCCON=C1C[C@@H](O)[C@@H](O)[C@@H]2[C@@H]3C(=O)N(Cc4ccccc4)C(=O)[C@@H]3CC[C@H]12 | false (0) |
| O=C1[C@H]2[C@H]3[C@H](O)[C@H](O)CC(=NO[C@@H]4O[C@H](CO)[C@@H](O)[C@H](O)[C@H]4O)[C@H]3CC[C@H]2C(=O)N1C1CCCCC1 | true (1) |
| CC(=O)OC[C@H]1O[C@@H](ON=C[C@@H](C)[C@H](OCc2ccccc2)C(C)C)[C@H](OC(C)=O)[C@@H](OC(C)=O)[C@@H]1OC(C)=O | false (0) |

Entry CCc1cc2c(nc1CC)CCN(CCC(C)=NOC(C)CN1CCCc3nc(C)c(C)cc31)C2 (stereo unspecified) : is its composite z-score no less than 0.2?
true (1)

Has CC(=O)OC[C@H]1O[C@H](CCON=C(C)CCC(=O)OC[C@H]2O[C@H](C#Cc3ccccc3)C=C[C@@H]2Oc2ccc(C)cc2)C=C[C@@H]1OC(C)=O a recorded composite z-score greater than or equal to 0.2?
false (0)

Hello, I need to know if CC(C)(C)N1C(=O)[C@H]2[C@H]3[C@H](O)[C@H](O)CC(=NO[C@@H]4O[C@H](CO)[C@@H](O)[C@H](O)[C@H]4O)[C@@H]3CC[C@H]2C1=O has measured composite z-score not below 0.2. Thanks!
true (1)

Has C[C@@H]1CC[C@H]2C(=O)O[C@H](COc3ccc(C(C)(C)C)cc3)CN2[C@H]1c1ccc(Br)cc1 a recorded composite z-score greater than or equal to 0.2?
false (0)

Hi team, for CO[C@@H]1COC(=O)CCC[C@@H](C)[C@H](OC)COC(=O)CCC[C@H]1C , is the recorded composite z-score at or above 0.2?
false (0)

Textbook exercise: given the entry C=C(/C(=C/C[C@H](OC(=O)c1ccncc1)c1ccc(OCCO)cc1)c1cnc2ccccc2c1)C(C)C , state whether its composite z-score is greater than or equal to 0.2.
true (1)

---

test: binders of probe aFSTL3 on microarray, primary screen, stem cell growth factor project, biochemical, small-molecule microarray, fluorescence 635/667 (AID 1064); conditions: higher = more signal;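 further: measures binding of the biotinylated anti-FSTL3 antibody to printed compounds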
property measured: composite z-score
# respond with the number and nothing more

The following molecules have reported results that may help.
| chemical string | composite z-score |
| --- | --- |
| COC(=O)C1=C(C)N(Cc2ccccc2)[C@]23O[C@](C(=O)OC)(C(=O)N2[C@@H]1c1ccccc1)[C@H]1CCOC(=O)[C@H]13 | -0.602 |
| [N-]=[N+]=NCc1ccccc1[C@@H]1OC(c2ccc(OCCCO)cc2)=N[C@]1(Cc1ccccc1)C(=O)N1CCOCC1 | 0.351 |

# evaluate next
State, in one line, measured composite z-score of CC(C)(C)OC(=O)CC[C@]1(C(N)=O)COC(c2ccc(OCCCO)cc2)=N1
0.645

---

experiment: modulators of S6 phosphorylation in cells, primary screen, cell-based, A549, cytoblot, luminescence, serum-stimulated (AID 1158); conditions: A549 phospho-S6 cytoblot, 5 h, higher = more signal;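 further: serum-stimulated A549 lung adenocarcinoma cells; signal is phosphorylated S6 detected by cytoblot immunostaining with HRP secondary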
property measured: z-score
Hey, just send me the number, nothing else.

Sample answers from the record:
| compound | property measured | reported |
| --- | --- | --- |
| CC(C)NC(=O)[C@@]1(C)c2ccccc2C(=O)N(Cc2cc(F)cc(C(F)(F)F)c2)[C@H]1c1ccc(CO)cc1 | z-score | -0.191 |
| O=C(NN=C1C[C@@H](O)[C@@H](O)[C@@H]2[C@@H]3C(=O)N(c4ccc(F)cc4F)C(=O)[C@@H]3CC[C@@H]12)OCc1ccccc1 | z-score | -0.849 |
| COCCNC(=O)OCC1CCCC2(CC(OC(=O)NCCc3ccc(F)cc3)CC(CCC(=O)N[C@@H](C)C(=O)OC)O2)O1 (some centres not stated) | z-score | 0.672 |

# return recorded z-score for entry CCOc1ccc(N2C(=O)/C(=C/C=C/c3ccccc3OC)S(=O)(=O)C2c2cccc([N+](=O)[O-])c2)cc1 (configuration not stated)
2.38

Specify reported z-score for the compound shown: O=C1[C@H]2[C@H]3[C@H](O)[C@H](O)CC(=NOCc4ccccc4)[C@H]3CC[C@H]2C(=O)N1C[C@@H]1CCCO1
0.067

Specify z-score for CCOC(=O)NN=C1C[C@@H](O)[C@@H](O)[C@@H]2[C@@H]3C(=O)N(CC)C(=O)[C@@H]3CC[C@@H]12 and stop.
0.123

Give the reported z-score for this compound. C=C(/C(=C/C[C@H](OC(=O)c1ccncc1)c1ccc(OCCO)cc1)c1cnc2ccccc2c1)C(C)C
-0.288

Assign z-score to the following record: COC(=O)[C@H](C)NC(=O)CCC1CC(OC(=O)NCCc2ccc(F)cc2)CC2(CCCC(COC(=O)NCCc3ccc(Cl)cc3)O2)O1 (some centres not stated)
0.0808

---

experiment: basal 3T3-L1 adipocyte mitochondrial potential changes, profiling panel, cell-based, JC-1 fluorescence, 3T3-L1 adipocytes, 24 h, 100 nL compound (AID 1168); settings: JC-1 mitochondrial fluorescence, higher = more signal, called active from +8 up or from −8 down; further: test concentration not given here
z-score overview
// no unit, no text: just the number

Read the entry NC(=O)NCC#Cc1ccc2c(c1)[C@]1(C(=O)N2)[C@H](c2ccc(O)cc2)N2[C@H](c3ccccc3)[C@H](c3ccccc3)OC(=O)[C@H]2[C@@H]1C(=O)N1CCCCCCC1 and write its reported z-score.
1.04

Recall and state the measured z-score for CCc1cc2c(nc1CC)CCN(CCC(C)=NOC[C@@H](O)[C@H]1O[C@@H]3OC(C)(C)O[C@@H]3[C@H]1O)C2 .
-1.1

Specify z-score for COc1ccc([Si](C)(C)[C@H]2[C@H](CC(=O)N3CCC[C@H]3CO)O[C@@]3(C(=O)N(Cc4cccc(N5C(=O)COc6ccccc65)c4)c4ccccc43)[C@@H]2C)cc1 and stop.
1.86

Answer with reported z-score of COC(=O)C1=CCC(c2cccc(Cl)c2)O1 (configuration not stated)
0.00619

Fill in z-score for record COC(=O)CC1OC1[C@H](C)[C@@H](OC)C(C)C (some centres not stated)
0.269

Quick one: give measured z-score for N#Cc1ccc(NN2C(C(O)c3cc(C(F)(F)F)cc(C(F)(F)F)c3)C=CC3C(=O)N(c4ccccc4)C(=O)C32)cc1 (configuration not stated)
-0.189

Specify measured z-score for CCOC(=O)CCN1C(=O)[C@H]2[C@H]3[C@H](O)[C@H](O)CC(=NOC[C@@H](O)COCc4ccco4)[C@H]3CC[C@H]2C1=O .
-0.433
